# System: SN12C renal
# assay-summary: NCI-60 one-dose screen, 48 h
# measurement-setup: 10 µM unless noted
About 83,000 compounds went through this panel and 20% of them were active in at least one assay; those are over-represented in the sample as a whole. Calls of active or inactive are those of the source. Rule for the calls: active = growth percent below 10; inactive = the rest.
Please reply with one of these outcomes: T = active, F = inactive

Illustrative cases are given below, each with its answer.
{"smiles-input": "S=c1[nH]nc(-c2cc3ccc2CCc2ccc(cc2)CC3)n1-c1ccccc1", "class": "F"}
{"smiles-input": "CC(C)(C)n1cc(-c2ccnc(NCCCNS(=O)(=O)c3cccc(F)c3)c2)c(-c2cccc(O)c2)n1", "class": "F"}
{"smiles-input": "C=CCn1c2ccccc2c2c3c(c4c5ccccc5n(CC=C)c4c21)C(=O)N(O)C3=O", "class": "T"}
{"smiles-input": "COc1ccc2[nH]c(C(=O)OCc3ccc4c(Cl)cc(Cl)c(O)c4n3)cc2c1", "class": "T"}
{"smiles-input": "CC(C)NCCCNC1=C(Cl)C(=O)c2ccccc2C1=O", "class": "F"}
{"smiles-input": "O=C1C(Cl)=C(Nc2ccccn2)C(=O)c2ccccc21", "class": "T"}

Please examine the following record next.
For CCN1CCN(c2nc(NNC(=O)c3ccccc3)nc(N3CCN(C(c4ccccc4)c4ccccc4)CC3)n2)CC1 , which call appears in the assay record? F

* * *

# Tested on: KM12 colon
# assay-summary: NCI-60 one-dose screen, 48 h
# measurement-setup: 10 µM unless noted
Compounds without any hit were thinned out: in the full panel of roughly 83,000, 20% have a hit. The source made the active and inactive calls. How the source made its calls: active means growth percent below 10; inactive means the rest.
Please reply with one of these outcomes: 1 = active, -1 = inactive

Illustrative cases are given below, each with its answer.
{"molecule": "Nc1nc(=O)c2ccccc2s1", "class": -1}
{"molecule": "COc1ccc2c(c1)NC1=C(C(=O)OC1)C2c1cc(OC)c2c(c1)OCO2 (stereo unspecified)", "class": 1}
{"molecule": "c1ccc(-c2nnc(-c3ccccn3)s2)nc1", "class": -1}
{"molecule": "Nc1ccc(C(=O)CSc2nc3ccccc3[nH]2)cc1", "class": -1}
{"molecule": "Fc1ccccc1-c1nc(-c2nc3cc(Cl)c(Cl)cc3[nH]2)c2ccccn12", "class": -1}
{"molecule": "Fc1ccc(Nc2nc(NCCNc3ccnc4cc(Cl)ccc34)nc(N3CCOCC3)n2)cc1", "class": -1}
{"molecule": "Fc1ccc(CNCCNc2ncnc3c2cnn3-c2ccccc2)cc1", "class": -1}
{"molecule": "C=C1C(=O)O[C@H]2[C@H]1CC/C(Cn1cc(CNC(=O)/C=C/c3c[nH]c4ccccc34)nn1)=C\\CC[C@@]1(C)O[C@@H]21", "class": -1}

For CC1=NC2=CC=CC3=NC(C(Cl)(Cl)Cl)=NC(=N1)N23 , which call appears in the assay record? -1

For COc1ccncc1S(=O)(=O)NC(=O)Nc1ccc(Cl)c(Cl)c1 , which call appears in the assay record? -1

For COc1ccc(/C=C2\N=C(c3ccccc3)N(C(=O)c3ccccc3O)NC2=O)cc1 , which call appears in the assay record? -1

For Cc1ccc(S(=O)(=O)n2cc(C(=O)C(=O)Nc3ccncc3)c3ccccc32)cc1 , which call appears in the assay record? -1

For Clc1ccc2c(NC3CCC(NC4CCCCC4)CC3)ccnc2c1 (stereo unspecified) , which call appears in the assay record? -1

For CCc1ccc(-c2ccc(=O)n(-c3ccc(S(N)(=O)=O)cc3)n2)cc1 , which call appears in the assay record? -1

For O=C1/C(=C/c2ccc(Cl)cc2)CN(C(=O)CCN2CCC(=NO)CC2)C/C1=C\c1ccc(Cl)cc1 , which call appears in the assay record? 1

For CCCCCc1cc[n+](CC(=O)c2ccc([N+](=O)[O-])cc2)cc1 , which call appears in the assay record? -1

For O=C(O)C1CCCCN1c1nc(Cl)nc(Cl)n1 (stereo unspecified) , which call appears in the assay record? -1

For COc1ccc(NC(=O)c2c(Nc3ccc(OC)cc3OC)n[nH]c2N)c(OC)c1 , which call appears in the assay record? -1

For COc1cc(/C=C/C(=O)/C=C/c2cc(OC)c3c(c2)OCO3)cc2c1OCO2 , which call appears in the assay record? 1

For COc1ccc(Nc2nc(N)nc3c2CCN(Cc2ccc(OC)cc2OC)C3=O)cc1 , which call appears in the assay record? -1

For O=C1NC(=C(Cl)Cl)/C(=N/S(=O)(=O)N2CCC(C3(C(F)(F)F)N=N3)CC2)N1 , which call appears in the assay record? -1

* * *

Field: growth. Provide a value for each of the compounds that follow.
# Tested on: MALME-3M melanoma
# assay-summary: NCI-60 one-dose screen, 48 h (100 = growth as untreated, 0 = no growth, -100 = all killed)
# measurement-setup: 10 µM unless noted
The panel holds about 83,000 compounds, 20% with a hit somewhere; the sample as a whole holds those more often.
Give bare numbers, in %.

{"compound": "Clc1ccccc1-c1nc2ccccc2[nH]1", "unit-descriptor": "%", "growth": 101}
{"compound": "O=C(O)c1cn(C2CC2)c2cc(N3CCN(C(=O)/C=C/c4ccc(Cl)cc4)CC3)c(F)cc2c1=O", "unit-descriptor": "%", "growth": 84.6}
{"compound": "COc1ccc(Nc2ncccc2C(=O)NCc2cn(Cc3cccc(Oc4ccccc4)c3)nn2)cc1", "unit-descriptor": "%", "growth": 41.4}
{"compound": "Cc1nc2cncc(C#Cc3cncc(C(=O)Nc4ccc(CN5CCN(C)CC5)c(C(F)(F)F)c4)c3)c2nc1C", "unit-descriptor": "%", "growth": -38.8}
{"compound": "COc1ccncc1S(=O)(=O)NC(=O)Nc1ccc(Cl)c(Cl)c1", "unit-descriptor": "%", "growth": 90.1}
{"compound": "CN1CCN(Cc2ccc(NC(=O)c3nc4ccc5[nH]ncc5c4c4c3CCC4)cc2C(F)(F)F)CC1", "unit-descriptor": "%", "growth": -55}
{"compound": "CCN(CC)CCOC(=O)C(c1ccccc1)(c1ccccc1)C(C)C", "unit-descriptor": "%", "growth": 95.1}
{"compound": "O=C(Nc1ccc2c(c1)OCCO2)C(=O)c1c[nH]c2ccccc12", "unit-descriptor": "%", "growth": 46.6}
{"compound": "CN(C)CCOC(=O)Nc1ccccc1Cl", "unit-descriptor": "%", "growth": 94.8}
{"compound": "COC(=O)c1nc(-c2ccccc2)oc1S(=O)(=O)N1CCN(c2cccc(Cl)c2)CC1", "unit-descriptor": "%", "growth": 100}

Each compound below has a reported value. Please supply its growth.
1. O=S(=O)(NCCNc1nccc(-c2c(-c3ccc(O)cc3)nc3sccn23)n1)c1cccc2ccccc12
2. COc1cc2c(cc1OCCCN1CCN(CCCn3c4ccccc4c4ccccc43)CC1)N=C[C@@H]1CCCN1C2=O
3. Cc1ccc(S(=O)(=O)NCCNc2cc(-c3cn(C(C)(C)C)nc3-c3cccc(O)c3)ccn2)cc1
4. O=C1/C(=C/c2ccccc2)Oc2ccc(O)c(I)c21
5. COc1ccc2c(c1)[nH]c(=O)c1c3cc(OC)ccc3cn21
6. COC1=C(OC)C(=O)C(CCCCCCCCCC[P+](c2ccccc2)(c2ccccc2)c2ccccc2)=C(C)C1=O

1. 100
2. -82.5
3. 61.8
4. 101
5. 60.4
6. -86.3

Each compound below has a reported value. Please supply its growth.
1. COc1cc(Nc2nc(N[C@H]3CCCC[C@@H]3N)nc3cc[nH]c(=O)c23)cc(OC)c1
2. C=C(C)[C@@H]1C[C@H](O)Cc2cc(F)ccc2N1
3. O=S(=O)(CC(O)(c1ccccc1)c1ccccc1)CC(O)(c1ccccc1)c1ccccc1

[91.6, 109, 61.8]

Each compound below has a reported value. Please supply its growth.
1. N[C@@H]1CCN(C(=O)c2cc3cc(Cl)c(F)c(F)c3[nH]2)C1
2. COc1ccc(OC)c(/C=C2\Oc3cc(OCCCN4CCCC4)ccc3C2=O)c1
3. OC(c1cc2cc(Br)ccc2c2cc(Br)ccc12)C1CCCCN1 (stereo unspecified)
4. COc1cc(C(=O)/C=C/c2ccc3nc(-c4cc(F)cc(F)c4)sc3c2)cc(OC)c1OC
5. O=C(O)Cc1cccc(=O)c(O)c1C(=O)O
6. Cc1ccc(NS(=O)(=O)c2cc(C)ccc2C)cc1

97.8
104
-57.5
86.6
92.5
54.1

Each compound below has a reported value. Please supply its growth.
1. Cn1cnc2c(N3CCN(C(=O)OCc4ccc5c(Cl)cc(Cl)c(O)c5n4)CC3)nc(Cl)nc21
2. FC(F)(F)c1ccccc1-c1cn2c(ccc3ccccc32)n1
3. O=C(/C=C/c1c[nH]c2ccccc12)c1ccc(O)c(CN2CCN(c3ccc(F)cc3)CC2)c1
4. Cc1nc2c3c(ncn2n1)Oc1c(c(=O)[nH]c2ccccc12)C3c1ccc(Cl)cc1 (stereo unspecified)
5. ClC(Cl)c1nc(-c2ccccc2)nc2cc(-c3ccccc3)nn12

[85.2, 65.1, 101, 105, 93]
